Cited source: paper PMC12416549

Target: T1, TNFR1 (Homo sapiens, UniProt P19438)
T1 chain: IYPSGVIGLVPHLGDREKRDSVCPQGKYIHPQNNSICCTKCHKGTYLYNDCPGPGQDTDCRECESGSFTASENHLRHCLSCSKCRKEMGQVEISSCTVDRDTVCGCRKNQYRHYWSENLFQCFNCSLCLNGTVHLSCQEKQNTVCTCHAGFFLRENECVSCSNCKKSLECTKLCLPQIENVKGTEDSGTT
Method Description: yeast display SC50
Cut-off 0.5 nM on apparent Kd (screen): below means yes, at or above means no.

| Binder | Label Class |
| --- | --- |
| H78K (designed binder) MTLQELLREEALRRAEAEAFRYALELLAEKFPEQKEYLLDLAEEIESQIRSLSGVDVEDVRKFLDKEWAWVKELLAEKPAELAEVEAARAARLAELRAEVEAKVAA | yes |
| I45P (designed binder) MTLQELLREEALRRAEAEAFRYALELLAEKFPEQKEYLLDLAEEPESQIRSLSGVDVEDVRKFLDKEWAWVKELLAEHPAELAEVEAARAARLAELRAEVEAKVAA | yes |
| E99Y (designed binder) MTLQELLREEALRRAEAEAFRYALELLAEKFPEQKEYLLDLAEEIESQIRSLSGVDVEDVRKFLDKEWAWVKELLAEHPAELAEVEAARAARLAELRAYVEAKVAA | no |
| A17N (designed binder) MTLQELLREEALRRAENEAFRYALELLAEKFPEQKEYLLDLAEEIESQIRSLSGVDVEDVRKFLDKEWAWVKELLAEHPAELAEVEAARAARLAELRAEVEAKVAA | no |
| A102W (designed binder) MTLQELLREEALRRAEAEAFRYALELLAEKFPEQKEYLLDLAEEIESQIRSLSGVDVEDVRKFLDKEWAWVKELLAEHPAELAEVEAARAARLAELRAEVEWKVAA | no |

Query: Find out if reported apparent Kd (screen) for V71K (designed binder) MTLQELLREEALRRAEAEAFRYALELLAEKFPEQKEYLLDLAEEIESQIRSLSGVDVEDVRKFLDKEWAWKKELLAEHPAELAEVEAARAARLAELRAEVEAKVAA is less than 0.5 nM
Result: no

Query: Find out if reported apparent Kd (screen) for L52Y (designed binder) MTLQELLREEALRRAEAEAFRYALELLAEKFPEQKEYLLDLAEEIESQIRSYSGVDVEDVRKFLDKEWAWVKELLAEHPAELAEVEAARAARLAELRAEVEAKVAA is less than 0.5 nM
Result: no

Query: Find out if reported apparent Kd (screen) for F20G (designed binder) MTLQELLREEALRRAEAEAGRYALELLAEKFPEQKEYLLDLAEEIESQIRSLSGVDVEDVRKFLDKEWAWVKELLAEHPAELAEVEAARAARLAELRAEVEAKVAA is less than 0.5 nM
Result: no
